tested on: CSNK1G2; conditions: Compound Concentration (nM):1000;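 further: KINOMEscan scanMAX binding as percent activity remaining versus control; lower means stronger binding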
Value Kind: Percent Control (%)
Number in %, nothing else.

Compound	Percent Control / %
COc1cc2ncn(-c3cc(O[C@H](C)c4ccccc4Cl)c(C(N)=O)s3)c2cc1OC [GSK237701A]	89

Consider the compound CN(C)c1cc2c(Nc3ccc4c(cnn4Cc4ccccc4)c3)ncnc2cn1 [GW282974X] and give its recorded Percent Control. 100

Supply measured Percent Control of O=C(Nc1n[nH]c2nc(-c3ccc(O)cc3)c(Br)cc12)C1CC1 in your reply. 100

Please give the documented Percent Control of NS(=O)(=O)c1ccc(N/N=C2\C(=O)Nc3ccc(C(=O)NCc4ccncc4)cc32)cc1 [GW300657X] 100

Specify Percent Control for C[C@@H](Oc1cc(-n2cnc3ccc(OC4CCN(C)CC4)cc32)sc1C(N)=O)c1ccccc1Cl [GSK579289A] and stop. 80

Tell me Percent Control reported for COc1cc(C)c(N(C)C(=O)CN(C)C)cc1Nc1nc(Nc2cccc(F)c2C(N)=O)c2cc[nH]c2n1 11

###

test system: ULK1; settings: Compound Concentration (nM):1000
In this section we review reported Percent Control values for a set of compounds.
Entry rule: numbers only, all in %.

Indicate the recorded Percent Control value for this compound: COc1cc2ncn(-c3cc(O[C@H](C)c4ccccc4Cl)c(C(N)=O)s3)c2cc1OC [GSK237701A] 92

Specify measured Percent Control for CCS(=O)(=O)c1ccc(OC)c(Nc2ncc(-c3cccc(OC)c3)o2)c1 [GW580509X] . 87

Output measured Percent Control for this item: COc1cc2ncnc(Nc3ccc4c(cnn4Cc4ccccc4)c3)c2cc1OC.Cl [GW282449A] 74

For the compound COc1ccc2cc(-c3c(-c4ccncc4)nc(-c4ccc(S(C)(=O)=O)cc4C)n3C)ccc2c1 , report Percent Control. 72

Complete the entry with Percent Control for CCc1ccc(Oc2nccc(-c3c(-c4ccc(F)cc4)ncn3C3CCNCC3)n2)cc1 92

Consider the compound COc1ccc2[nH]c3c4[nH]c5ccc(OC)cc5c4c4c(c3c2c1)C(=O)NC4=O [GW296115X] . State its measured Percent Control. 100

State its Percent Control: COc1cc(C)c(N(C)C(=O)CN(C)C)cc1Nc1nc(Nc2cccc(F)c2C(N)=O)c2cc[nH]c2n1 72

Using the record for Cl.O=C(O[C@H]1CN[C@H](C#Cc2cc3ncnc(Nc4ccc5c(cnn5Cc5ccccc5)c4)c3s2)C1)N1CCOCC1 [GSK200398A] , state its measured Percent Control. 62

###

tested on: DRAK1; construct: gene STK17A; settings: Compound Concentration (nM):1000
Value Kind: Percent Control (%)
Unit % implied. Number only.

Here are 5 molecules together with their reported answers.
Molecule	Value Kind	Readout Unit	Readout Number
O=C1Nc2ccc(C(=O)c3ccco3)cc2C1=Cc1cc(Cl)c(O)c(Cl)c1 [GW406108X]	Percent Control	%	80
NS(=O)(=O)c1ccc(Nc2ncc(-c3ccccc3)o2)cc1 [GW572399X]	Percent Control	%	85
Cl.c1ccc(Cc2nc3ccc(Nc4ncnc5ccccc45)cc3[nH]2)cc1 [GR269666A]	Percent Control	%	68
COc1cc(/C=N/Nc2ncnc3[nH]ncc23)ccc1O [GW578748X]	Percent Control	%	7
NS(=O)(=O)c1ccc(N/N=C2\C(=O)Nc3ccc(C(=O)NCc4ccncc4)cc32)cc1 [GW300657X]	Percent Control	%	0.3

Give the value of Percent Control reported for the following: COc1cc2ncnc(Nc3ccc4c(cnn4Cc4ccccc4)c3)c2cc1OC.Cl [GW282449A] 100

Name the recorded Percent Control of the item O=C(Nc1n[nH]c2nc(-c3ccc(O)cc3)c(Br)cc12)C1CC1 in your answer. 100
